Task for the reader: assign each of the following variants its reported protein stability index.
B1: GMCL1 (parent)
chain: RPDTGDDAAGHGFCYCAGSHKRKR

Variants of: B1
TEST_SUMMARY: protein stability index of a GFP-peptide fusion (GPS, HEK-293T) (PSI 1-6); higher = more stable;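 also: lentivirally expressed fusions sorted by FACS into six bins by GFP to DsRed ratio, PSI derived from sequencing read proportions per bin multiplied by bin number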
APPLIED_CONDITIONS: c terminus: a fixed tail appended

// for each variant in input: emit protein stability index
1. D6I
2. A9N
3. G12W
4. G18K
5. C14W
6. F13D
7. P2K
8. D3Q

Found:
1. 3.05
2. 3.52
3. 2.36
4. 3.58
5. 3.82
6. 3.82
7. 3.35
8. 2.51

// for each variant in input: emit protein stability index
1. H11K
2. F13V
3. R24A
4. R24Q
5. C14H
6. R24P

Found:
3.16
3.55
3.53
3.35
4.7
3.94

// for each variant in input: emit protein stability index
1. R24K
2. G18M
3. G10Y
4. A9F
5. A8L

Found:
3.65
2.71
2.91
2.72
2.36
